Reference for the values: patent US20030134883A1

- Test system: MCF-7 cancer cell line
- PROTOCOL_SUMMARY: Cytotoxicity in cell culture (FIG. 3), MCF-7
- Format: cell-based
- REPORTED_CONDITIONS: MCF-7 cells, in vitro
VALUE_TYPE: cytotoxicity

compound="C/C1=C/[C@H](C)[C@@H](/C(C)=C/c2csc(C)n2)OC(=O)C[C@H](O)C(C)(C)C(=O)[C@H](C)[C@@H](O)[C@@H](C)CCC1 [(14S)-14-methylepothilone D]" reported_value=cytotoxic
compound="C/C(=C\\c1csc(C)n1)[C@H]1OC(=O)C[C@H](O)C(C)(C)C(=O)[C@H](C)[C@@H](O)[C@@H](C)CCC[C@@]2(C)O[C@H]2[C@H]1C [(14S)-14-methylepothilone B]" reported_value="essentially inactive"
compound="C/C(=C\\c1csc(C)n1)[C@H]1OC(=O)C[C@H](O)C(C)(C)C(=O)[C@H](C)[C@@H](O)[C@@H](C)CCC[C@@]2(C)O[C@H]2[C@@H]1C [(14R)-14-methylepothilone B]" reported_value=cytotoxic
compound="C/C1=C/[C@@H](C)[C@@H](/C(C)=C/c2csc(C)n2)OC(=O)C[C@H](O)C(C)(C)C(=O)[C@H](C)[C@@H](O)[C@@H](C)CCC1 [(14R)-14-methylepothilone D]" reported_value="essentially inactive"

* * *

- Tested on: NCI-ADR cancer cell line
- PROTOCOL_SUMMARY: Cytotoxicity in cell culture (FIG. 3), NCI-ADR
- Type: cell-based
- REPORTED_CONDITIONS: NCI-ADR cells, in vitro
VALUE_TYPE: cytotoxicity

compound="C/C(=C\\c1csc(C)n1)[C@H]1OC(=O)C[C@H](O)C(C)(C)C(=O)[C@H](C)[C@@H](O)[C@@H](C)CCC[C@@]2(C)O[C@H]2[C@H]1C [(14S)-14-methylepothilone B]" experimental_target="NCI-ADR cancer cell line" reported_value="essentially inactive"
compound="C/C1=C/[C@@H](C)[C@@H](/C(C)=C/c2csc(C)n2)OC(=O)C[C@H](O)C(C)(C)C(=O)[C@H](C)[C@@H](O)[C@@H](C)CCC1 [(14R)-14-methylepothilone D]" experimental_target="NCI-ADR cancer cell line" reported_value="essentially inactive"
compound="C/C1=C/[C@H](C)[C@@H](/C(C)=C/c2csc(C)n2)OC(=O)C[C@H](O)C(C)(C)C(=O)[C@H](C)[C@@H](O)[C@@H](C)CCC1 [(14S)-14-methylepothilone D]" experimental_target="NCI-ADR cancer cell line" reported_value=cytotoxic
compound="C/C(=C\\c1csc(C)n1)[C@H]1OC(=O)C[C@H](O)C(C)(C)C(=O)[C@H](C)[C@@H](O)[C@@H](C)CCC[C@@]2(C)O[C@H]2[C@@H]1C [(14R)-14-methylepothilone B]" experimental_target="NCI-ADR cancer cell line" reported_value=cytotoxic

* * *

- System: H460 cancer cell line
- PROTOCOL_SUMMARY: Cytotoxicity in cell culture (FIG. 3), H460
- Format: cell-based
- REPORTED_CONDITIONS: H460 cells, in vitro
VALUE_TYPE: cytotoxicity

compound="C/C(=C\\c1csc(C)n1)[C@H]1OC(=O)C[C@H](O)C(C)(C)C(=O)[C@H](C)[C@@H](O)[C@@H](C)CCC[C@@]2(C)O[C@H]2[C@@H]1C [(14R)-14-methylepothilone B]" reported_value=cytotoxic
compound="C/C(=C\\c1csc(C)n1)[C@H]1OC(=O)C[C@H](O)C(C)(C)C(=O)[C@H](C)[C@@H](O)[C@@H](C)CCC[C@@]2(C)O[C@H]2[C@H]1C [(14S)-14-methylepothilone B]" reported_value="essentially inactive"
compound="C/C1=C/[C@@H](C)[C@@H](/C(C)=C/c2csc(C)n2)OC(=O)C[C@H](O)C(C)(C)C(=O)[C@H](C)[C@@H](O)[C@@H](C)CCC1 [(14R)-14-methylepothilone D]" reported_value="essentially inactive"
compound="C/C1=C/[C@H](C)[C@@H](/C(C)=C/c2csc(C)n2)OC(=O)C[C@H](O)C(C)(C)C(=O)[C@H](C)[C@@H](O)[C@@H](C)CCC1 [(14S)-14-methylepothilone D]" reported_value=cytotoxic
